- System: TAAR1 (Mus musculus, UniProt Q923Y8)
- Construct: expressed in transfected cells; host or cells: HEK293 cells (ATCC # CRL-1573), stably transfected with pIRESneo2 expression plasmid; membrane preparation
- Sequence (Q923Y8 whole entry): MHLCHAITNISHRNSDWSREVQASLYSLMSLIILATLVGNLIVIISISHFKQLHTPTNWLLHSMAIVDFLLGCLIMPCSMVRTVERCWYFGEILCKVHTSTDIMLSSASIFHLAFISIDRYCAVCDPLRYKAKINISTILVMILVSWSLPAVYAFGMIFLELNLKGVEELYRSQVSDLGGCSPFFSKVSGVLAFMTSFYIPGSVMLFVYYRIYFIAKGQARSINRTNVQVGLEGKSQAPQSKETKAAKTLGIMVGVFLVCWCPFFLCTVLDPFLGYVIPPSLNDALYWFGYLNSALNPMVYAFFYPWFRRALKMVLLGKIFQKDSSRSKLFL
- Procedure summary: Radioligand binding to TAAR1, membranes of stably transfected HEK293 cells, [3H]-rac-2-(1,2,3,4-tetrahydro-1-naphthyl)-2-imidazoline
- Condition context: radioligand of the TAAR1 binding assay; species not stated; read-out: calculated Kd value of the radioligand
Measure name: Kd (nM)
State the answer as a number, implicitly in nM.

Would you mind telling me what Kd value was observed for c1ccc2c(c1)CCCC2C1=NCCN1 (racemic) [reference compound] ?
60
